# Tested on: L. donovani HU3 strain in mouse peritoneal macrophages
# ASSAY SUMMARY: Assay for inhibition of parasitemia of Leishmania donovani in mouse macrophages (SYBR Green nuclei count, high-content imaging)
# Format: cell-based
# STATED CONDITIONS: Leishmania donovani, Peritoneal macrophage, L. donovani in mouse peritoneal macrophages; read-out: L. donovani in Mouse Macrophages EC50
pEC50: −log10 of the molar value.
Label yes for high-side pEC50 (at or above 8) and no for low-side pEC50 (below it).

Below are worked cases with known answers.
>>> assigned_label("Cc1cccnc1-c1cnc2nn(-c3cc(NC(=O)c4ccco4)ccc3F)cc2c1")
"yes"
>>> assigned_label("O=C(Nc1ccc(F)c(-n2cc3cc(-c4ncccc4F)cnc3n2)c1)N1CCC1")
"yes"
>>> assigned_label("CC(C)Cc1cnc2nn(-c3cc(NC(=O)N4CC(F)(F)C4)ccc3F)cc2c1")
"yes"
>>> assigned_label("CCC(C)(C)c1cnc2nn(-c3cc(NC(=O)N4CC[C@@H](F)C4)ccc3F)cc2c1")
"no"
>>> assigned_label("O=C(Nc1ccc(F)c(-n2cc3cc(-c4c[nH]cn4)cnc3n2)c1)N1CC(F)C1")
"no"
>>> assigned_label("O=C(Nc1cccc(-n2cc3cc(N4CC(F)(F)C4)cnc3n2)c1)N1CCC1")
"no"

Test whether the compound CCCC(C)c1cnc2nn(-c3cc(NC(=O)N4CC[C@@H](F)C4)ccc3F)cc2c1 (some centres unmarked) records pEC50 of 8 or higher.
no

Hi, just wondering whether O=C(Nc1ccc(F)c(-n2cc3cc(N4CCCC4)cnc3n2)c1)N1CC(F)C1 shows pEC50 of 8 or higher.
yes

// inclusive: pEC50 at least 8? input: CC(C)c1cnc2nn(-c3cc(NC(=O)CC(F)(F)F)ccc3F)cc2c1
no

# check: pEC50 of CN(C)c1cnc2nn(-c3cc(NC(=O)C4CC4)ccc3F)cc2c1 is greater than or equal to 8
no

Determine whether this compound has pEC50 no lower than 8: O=C(Nc1ccc(F)c(-n2cc3cc(-c4ncccc4F)cnc3n2)c1)N1CC[C@@H](F)C1
yes

* * *

# System: Trypanosoma cruzi amastigotes cultured in 3T3 fibroblast cells
# ASSAY SUMMARY: Assay for growth inhibition of kinetoplastid parasite Trypanosoma cruzi (beta-galactosidase Tulahuen strain, CPRG readout)
# Assay type: cell-based
# STATED CONDITIONS: Trypanosoma cruzi, Fibroblast, T. cruzi amastigotes in 3T3 fibroblast cells; read-out: Buckner infectious T. cruzi EC50
Entries and their measured pEC50 follow.
# pEC50: negative log10 of molar concentration; output just the value

Previously resolved entries follow.
>>> test_result("O=C(Nc1ccnc(-n2cc3cc(-c4ccccn4)cnc3n2)c1)N1CC(F)C1 [Compound 342]")
7.77
>>> test_result("CC(C)OC(=O)Nc1cnc2nn(-c3cc(NC(=O)N4CC(F)(F)C4)ccc3F)cc2c1 [Compound 146]")
7.07
>>> test_result("CC(C)c1cnc2nn(-c3cc(NC(=O)N4C[C@H]5C[C@H]5C4)ccc3F)cc2c1 [Compound 223]")
7.43
>>> test_result("CCCC(C)c1cnc2nn(-c3cc(NC(=O)N4CCC4)ccc3F)cc2c1 (stereo not drawn) [Compound 95]")
6.77
>>> test_result("Cc1nc(C)c(C(=O)Nc2ccc(F)c(-n3cc4cc(C(C)C)cnc4n3)c2)o1 [Compound 351]")
7.82

Supply pEC50 value. Item: Cc1nc(C)c(C(=O)Nc2ccc(F)c(-n3cc4cc(-c5ncccc5CO)cnc4n3)c2)o1 [Compound 335]
6.33

These measurements were taken from patent US11384078B2.
